Tested on: pathogens of clinical samples
Assay: Molecular phenotypic antimicrobial susceptibility test of clinical samples, direct PCR without a separate DNA purification step (Table 6)
Type: cell-based
Details: P. mirabilis, clinical sample of r40-r54
recorded.endpoint: Molecular Antibiotic Susceptibility Result

{"cpd.smiles": "CN(C)[C@@H]1C(O)=C(C(N)=O)C(=O)[C@@]2(O)C(O)=C3C(=O)c4c(O)cccc4[C@@](C)(O)[C@H]3C[C@@H]12", "value.measured": "Resistant"}
{"cpd.smiles": "O=C1CN(/N=C/c2ccc([N+](=O)[O-])o2)C(=O)N1", "value.measured": "Resistant"}

---

System: pathogens of clinical samples
Assay: Molecular phenotypic antimicrobial susceptibility test of clinical samples, extraction DNA purification step prior to PCR (Table 6)
Type: cell-based
Details: K. aerogenes, clinical sample of r136-r150, Ct Control Avg 19.994
recorded.endpoint: Ct
Respond with the number and no other words.

{"molecule": "C[C@H]1COc2c(N3CCN(C)CC3)c(F)cc3c(=O)c(C(=O)O)cn1c23 [Levofloxacin]", "Ct": 38.019}
{"molecule": "C[C@@H]1O[C@@H]1P(=O)(O)O [Fosfomycin]", "Ct": 25.008}
{"molecule": "O=C1CN(/N=C/c2ccc([N+](=O)[O-])o2)C(=O)N1 [Nitrofurantoin]", "Ct": 38.755}
{"molecule": "CO[C@@]1(NC(=O)Cc2cccs2)C(=O)N2C(C(=O)O)=C(COC(N)=O)CS[C@@H]21 [Cefoxitin]", "Ct": 20.635}
{"molecule": "CO/N=C(\\C(=O)N[C@@H]1C(=O)N2C(C(=O)O)=C(CSc3nc(=O)c(=O)[nH]n3C)CS[C@H]12)c1csc(N)n1 [Ceftriaxone]", "Ct": 33.124}

Sample C[C@@H](O)[C@H]1C(=O)N2C(C(=O)O)=C(S[C@@H]3CN[C@H](C(=O)N(C)C)C3)[C@H](C)[C@H]12 [Meropenem] ; Ct observed: 33.144

Sample CN(C)[C@@H]1C(O)=C(C(N)=O)C(=O)[C@@]2(O)C(O)=C3C(=O)c4c(O)cccc4[C@@](C)(O)[C@H]3C[C@@H]12 [Tetracycline] ; Ct observed: 37.04

Sample CC1(C)S[C@@H]2[C@H](NC(=O)[C@H](N)c3ccccc3)C(=O)N2[C@H]1C(=O)O [Ampicillin] ; Ct observed: 19.504

// data source = patent US20250290117A1
